system: Ramos B-Cell Line Stimulated with IL-4 (JAK-1 and JAK-3 / Stat-6, CD23); assay: Assay for Ramos B-Cell Line Stimulated with IL-4 (CD23 upregulation, FACS); format: cell-based; conditions: Homo sapiens, Ramos, human Ramos B cells, compound 1 hour, IL-4 50 units/mL for 20-24 hours, anti-CD23-PE FACS; read-out: Example 2 (IC50)
pIC50: −log10 of the molar value.
Decision: pIC50 compared against 6; not below it gives met, below it gives not met.

The examples below pair each entry with its known result.
- COMPOUND: "NC(=O)COc1ccc(Nc2nc(Nc3cccc(C(N)=O)c3)ncc2F)cc1"
  ASSIGNED LABEL: "not met"
- COMPOUND: "Cc1nc(COc2ccc(Nc3nc(Nc4ccc(N5CCN(C)CC5)c(C(N)=O)c4)ncc3F)cc2)no1"
  ASSIGNED LABEL: "met"
- COMPOUND: "N#CCOc1ccc(Nc2nc(Nc3cccc(C(N)=O)c3)ncc2F)cc1Cl"
  ASSIGNED LABEL: "met"
- COMPOUND: "N#CCc1ccc(Nc2nc(Nc3ccc(C#N)cc3)ncc2F)cc1"
  ASSIGNED LABEL: "not met"
- COMPOUND: "Cc1cc(Nc2nc(Nc3ccc(CC#N)cc3)ncc2F)ccc1OCC#N"
  ASSIGNED LABEL: "met"
- COMPOUND: "Cc1noc(CCc2ccc(Nc3nc(Nc4ccc(CC#N)cc4)ncc3F)cc2)n1"
  ASSIGNED LABEL: "not met"

Lookup: Can CCc1cc(Nc2ncc(F)c(Nc3ccc(OCC#N)c(Cl)c3)n2)cc(C#N)c1Cl be said to have pIC50 at or above 6?
Found: not met

Lookup: Can CCc1cc(Nc2ncc(F)c(Nc3ccc4c(c3)NC(=O)CO4)n2)cc(C#N)c1Cl be said to have pIC50 at or above 6?
Found: not met

Lookup: Can Cc1cc(Nc2nc(Nc3cccc(C(N)=O)c3)ncc2F)ccc1OC(C)C#N (centres unmarked) be said to have pIC50 at or above 6?
Found: met

Lookup: Can N#CCc1ccc(Nc2ncc(F)c(Nc3ccc(F)c(Cl)c3)n2)cc1 be said to have pIC50 at or above 6?
Found: not met

Lookup: Can CNC(=O)c1cc(Nc2ncc(F)c(Nc3ccc(OCc4noc(C)n4)cc3)n2)ccc1N1CCN(C)CC1 be said to have pIC50 at or above 6?
Found: met
